Assign IC50 to each entry below.
System: DENV-3-V1043 (2006/Puerto Rico)
assay_method_text: microbe, parasite or virus in culture
test_conditions: Dengue virus, DENV3, LLC-MK2, read-out: IC50 DENV-3-V1043, LLC-MK2 cells; Table 5
State just the number; it will be interpreted in µM.

Value of IC50 reported for the compound `C[C@@H]1CC[C@@]2(OC1)O[C@H]1[C@@H](O)[C@H]3[C@@H]4CC[C@H]5C[C@@H](O[C@@H]6O[C@H](CO)[C@H](O[C@@H]7O[C@H](CO)[C@@H](O)[C@H](O[C@@H]8OC[C@@H](O)[C@H](O)[C@H]8O)[C@H]7O[C@@H]7O[C@H](CO)[C@H](O)[C@H](O[C@@H]8O[C@H](CO)[C@@H](O)[C@H](O)[C@H]8O)[C@H]7O)[C@H](O)[C@H]6O)[C@H](O)C[C@]5(C)[C@H]4CC[C@]3(C)[C@H]1[C@@H]2C` is 4.07

So, `Cc1cc2c(C(C)C)c(O)c(O)c(C=O)c2c(O)c1-c1c(C)cc2c(C(C)C)c(O)c(O)c(C=O)c2c1O` ? Its IC50 was 3.7
